Molecular target: Glutathione S-transferase omega-1 (Homo sapiens)
Assay: inhibitors of recombinant GSTO1, primary screen, counter-screen for RBBP9 inhibitor project, biochemical, fluorescence polarization (AID 1974);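 also: 0% = GSTO1-1 with DMSO and 100% = wells lacking GSTO1-1 enzyme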
Conditions: recombinant GSTO1, activity-based probe fluorescence polarization; at 5.96 µM; hits give high values
About 3,200 (1.1%) of roughly 300,000 compounds were called active. Only a selection was taken, and actives are over-represented in it overall.

| COMPOUND | MEASUREMENT_TARGET | inhibition / % |
| --- | --- | --- |
| COc1ccc2c(c1)OC(O)(C(F)(F)C(F)F)CC2=O (configuration not stated) | Glutathione S-transferase omega-1 (Homo sapiens) | 42 |
| Cc1cc(C)cc(NC(=O)NCc2ccccn2)c1 | Glutathione S-transferase omega-1 (Homo sapiens) | 0.33 |
| COc1ccc(C)cc1Nc1nc(-c2c(C)[nH]c3ccccc23)cs1 | Glutathione S-transferase omega-1 (Homo sapiens) | 0.17 |
| CC1(C)CC(=O)c2ccc(O)cc2O1 | Glutathione S-transferase omega-1 (Homo sapiens) | 8.19 |
| COc1cccc(CC(=O)Nc2nc(-c3ccc(OC)c(OC)c3)cs2)c1 | Glutathione S-transferase omega-1 (Homo sapiens) | -14.6 |
| O=C(CN1C(=O)c2ccccc2C1=O)NCc1ccc(C(=O)O)cc1 | Glutathione S-transferase omega-1 (Homo sapiens) | 3.69 |
| COc1ccc2oc(=O)c(C(=O)NCc3ccccn3)cc2c1 | Glutathione S-transferase omega-1 (Homo sapiens) | 3.7 |
| COc1ccc(-c2csc(Cc3nc(O)cs3)n2)cc1 | Glutathione S-transferase omega-1 (Homo sapiens) | 8.36 |
| CC(C)N(C(=O)c1ccc(-c2ccccc2F)cc1)C(C)C | Glutathione S-transferase omega-1 (Homo sapiens) | 0.63 |
| COCCNC(=O)Nc1ccc2nc(-c3ccco3)c(-c3ccco3)nc2c1 | Glutathione S-transferase omega-1 (Homo sapiens) | 69.1 |
| CC(=O)N(C1=C(Cl)C(=O)c2ccccc2C1=O)c1ccc(C(=O)O)cc1 | Glutathione S-transferase omega-1 (Homo sapiens) | 79.7 |
| CC1=C/C(=N\OS(=O)(=O)c2ccccc2)C=CC1=O | Glutathione S-transferase omega-1 (Homo sapiens) | 49.7 |

* * *

Molecular target: Glutathione S-transferase omega-1 (Homo sapiens)
Assay: inhibitors of recombinant GSTO1, primary screen, counter-screen for RBBP9 inhibitor project, biochemical, fluorescence polarization (AID 1974);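 also: 0% = GSTO1-1 with DMSO and 100% = wells lacking GSTO1-1 enzyme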
Details: recombinant GSTO1, activity-based probe fluorescence polarization; at 5.96 µM; hits give high values
Among all 300,000 compounds or so, about 3,200 (1.1%) were called active. The sample holds actives, similar compounds and a random draw of the others, so the mix is not that of the screen.
As shown below, each of these compounds has a reported inhibition value.
ASSAY_ENDPOINT: inhibition

| COMPOUND | TEST_VALUE |
| --- | --- |
| O=C(c1cc2cc(Br)cc(Br)c2oc1=O)N1CCOCC1 | 5.88% (inactive) |
| Clc1ccc(C2=CSC3=Nc4cccc5cccc(c45)N23)cc1 | 58.2% (active) |
| CN(CC(=O)NNC(=O)CNC(=O)c1ccccc1Cl)S(=O)(=O)c1ccc(Cl)cc1 | 5.54% (inactive) |
| O=C(CCl)NNc1cccc(Cl)n1 | 50.5% (active) |
| O=C(NCC1CC1)c1onc(CSc2ccccc2)c1C(=O)NCC1CC1 | 4.37% (inactive) |
| Cc1ccc2c(c1)N(CC(=O)NCC1CCCO1)C(=O)CO2 (stereo not drawn) | -3.07% (inactive) |
| COc1c(O)cc2oc(-c3ccc(O)c(O)c3)cc(=O)c2c1O | 37% (active) |
| COc1cc(/C=C2/C(=O)NN(c3cccc(Cl)c3)C2=O)cc(Br)c1O | -21.9% (inactive) |
| CCOC(=O)c1ccccc1NC(=O)c1c(N)n(C)c(=O)[nH]c1=O | -3.83% (inactive) |
| CC(C)(C)c1ccc(C(=O)NCc2ccco2)cc1 | -7.66% (inactive) |
| Cc1ccc(SCC2=NNC(=O)C2)cc1 | 42.2% (active) |
| CC(=O)N(Cc1cc(=O)[nH]c2ccccc12)c1ccc(C)cc1C | -13.1% (inactive) |
| N#CC1(NC(=O)COC(=O)CSc2ccc(F)cc2)CCCCC1 | 6.75% (inactive) |
| COc1ccc(S(=O)(=O)N2CCOCC2)cc1NC(=O)CSc1ncnc2ccccc12 | 38.4% (active) |
| COc1ccc(N2CCN(C(=O)CCNC(=O)c3ccc(Br)cc3)CC2)cc1 | -8.57% (inactive) |
| CCC(C)NC(=O)C1c2ccccc2Oc2ccccc21 (stereo not drawn) | 2.29% (inactive) |
| Cc1n[nH]c(=O)c2c(NC(=O)CSc3ccccc3F)oc(C)c12 | -2.53% (inactive) |
| O=C(Cc1c(Cl)cccc1Cl)NC1CC1 | 3.33% (inactive) |
| O=C(NNc1ccccn1)c1ccc(Cl)nc1 | 12.7% (inactive) |
| O=C1NCCn2nc3ccccc3c21 | 3.49% (inactive) |
| COc1ccc(CCNc2cc(N3CCN(C(=O)c4ccccc4OC)CC3)ccc2[N+](=O)[O-])cc1OC | 0.42% (inactive) |
| CCOc1ccc(CC(=O)NCCS(=O)(=O)N2CCN(c3ccccc3)CC2)cc1 | 2.49% (inactive) |
| CCc1ccc(Nc2n[n+](-c3ccccc3)c(-c3cccc(Cl)c3Cl)s2)cc1 | 5.75% (inactive) |
| Cc1coc2c(O)cc3c(c12)OC1(N2CCCCC2)C(=O)NCCCC31 (stereo not drawn) | 74.4% (active) |
| CCCCn1c(N)c(N(CC(C)C)C(=O)c2cnc(C)cn2)c(=O)[nH]c1=O | -0.67% (inactive) |
| Cc1ccc(SCCSc2ncccn2)cc1 | -0.48% (inactive) |
| COc1ccc(-c2cc(=O)c3c(O)cc(O[C@@H]4O[C@H](CO[C@@H]5O[C@@H](C)[C@H](O)[C@@H](O)[C@H]5O)[C@@H](O)[C@H](O)[C@H]4O)cc3o2)cc1O | 6.25% (inactive) |
| COc1ccc(-c2c(NC(=O)c3ccco3)oc3ccc(Cl)cc3c2=O)cc1 | -7.76% (inactive) |
| C=CCOc1c(Br)cc(/C=N\n2nnnc2N)cc1OC | 0.64% (inactive) |
| COc1ccc(NC(=O)CN(C)C(=O)c2cc(-c3ccc(C)o3)nc3ccccc23)cc1 | 5.17% (inactive) |
| O=C1Nc2c(Br)cc(Br)cc2C1(O)N1CCOCC1 (stereo not drawn) | 71.2% (active) |
| CCOC(=O)COc1cc(O)c2c(=O)cc(-c3ccccc3)oc2c1 | 4.45% (inactive) |
| CN(C)[C@@H]1C(=O)C(C(N)=O)=C(O)[C@@]2(O)C(=O)C3=C(O)c4c(O)ccc(Cl)c4[C@@H](O)[C@H]3C[C@@H]12 | 69.1% (active) |
| COc1ccc(C(=O)OCC(=O)c2ccc(Cl)s2)c(OC)c1OC | 2.69% (inactive) |
| Cc1ccc(Cn2c(=N)c(S(=O)(=O)c3ccc(C)cc3)cc3c(=O)n4ccccc4nc32)cc1 | 1.35% (inactive) |
| Cc1c(C)n2c(SCC(=O)NC3CCCC3)nnc2[nH]c1=O | 3.72% (inactive) |
| COc1ccc(S(=O)(=O)N2CCCCC2)cc1NC(=O)COc1ccccc1 | -8.4% (inactive) |
| Cc1cc(C(=O)N/N=C/c2ccc(O)c([N+](=O)[O-])c2)c(C)n1-c1ccc(F)cc1 | 23.2% (inactive) |
| CCCCN1C(N)=NC[C@@H]1Cc1ccccc1 | -4.9% (inactive) |
| Cc1ccc(N(Cc2cc3ccccc3[nH]c2=O)C(=O)c2cccs2)cc1 | 0.73% (inactive) |
| COc1cc(/C=N/NC(=O)c2cc(-c3ccccc3C)nc3ccccc23)cc(OC)c1O | 3% (inactive) |
| Cc1ccc(SCc2cc(=O)[nH]c(N3CCCCC3)n2)cc1 | -1.38% (inactive) |
| N#CC1=C(N)C(C#N)(C#N)[C@H](c2ccsc2)[C@H]2COCC=C12 | 10.3% (inactive) |
